- Target: Calcium/calmodulin-dependent protein kinase type IV (Homo sapiens) (UniProt Q16566);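 also: each value is a mean inhibition of CAMK4, part of the GSK PKIS kinase screening panel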
- Sequence (whole entry): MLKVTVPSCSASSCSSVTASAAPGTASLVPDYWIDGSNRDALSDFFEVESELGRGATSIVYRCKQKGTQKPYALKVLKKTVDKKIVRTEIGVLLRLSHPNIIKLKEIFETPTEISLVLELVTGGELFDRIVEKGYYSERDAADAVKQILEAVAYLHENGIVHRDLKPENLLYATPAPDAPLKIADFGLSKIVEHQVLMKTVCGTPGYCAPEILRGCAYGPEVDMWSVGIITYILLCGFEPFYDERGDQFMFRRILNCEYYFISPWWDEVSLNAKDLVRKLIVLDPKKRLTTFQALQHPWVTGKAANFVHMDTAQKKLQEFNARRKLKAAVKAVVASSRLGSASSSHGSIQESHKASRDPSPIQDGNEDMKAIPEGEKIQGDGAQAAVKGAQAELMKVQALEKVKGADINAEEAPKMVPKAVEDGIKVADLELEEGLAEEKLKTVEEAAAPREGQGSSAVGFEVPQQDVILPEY
- Particulars: at 0.1 µM
Catalogue of compounds with associated inhibition
Give just the numeric value; % need not be written.

Tested on Calcium/calmodulin-dependent protein kinase type IV (Homo sapiens) (UniProt Q16566), the item "O=C(Nc1n[nH]c2nc(-c3ccco3)ccc12)C1CC1" showed inhibition equal to 2.75

Tested on Calcium/calmodulin-dependent protein kinase type IV (Homo sapiens) (UniProt Q16566), the item "O=C1Nc2ccc(I)cc2C1=Cc1cc(Br)c(O)c(Br)c1" showed inhibition equal to 0.52

Tested on Calcium/calmodulin-dependent protein kinase type IV (Homo sapiens) (UniProt Q16566), the item "Clc1ccc(CNc2nccc(-c3cnn4ncccc34)n2)cc1" showed inhibition equal to 1.93

---

- Target: Homeodomain-interacting protein kinase 1 (Homo sapiens);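 also: each value is a mean percent inhibition of HIPK1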
- Particulars: at 0.1 µM
Metric: inhibition (%)
Give just the numeric value; % need not be written.

Worked examples, 5 molecules total:
- NS(=O)(=O)c1ccc(N/N=C2\C(=O)Nc3ccc(-c4cnco4)cc32)cc1: -2.16
- Fc1ccc(-c2ncn(CCCN3CCOCC3)c2-c2ccncc2)cc1: -3.44
- O=C1Nc2ccccc2/C1=C/Nc1ccc(-n2cncn2)cc1: 2.9
- CN(C)CCOc1ccc(-c2cc(-c3ccc4c(c3)CCC4=NO)c(-c3ccncc3)o2)cc1: -5.92
- CCc1ccc(Oc2nccc(-c3c(-c4ccc(F)cc4)ncn3C3CCNCC3)n2)cc1: -2.3

Given item "COc1cc2ncn(-c3cc(OCc4cccs4)c(C(N)=O)s3)c2cc1OC" , the value recorded as its inhibition is 1.93

Given item "O=C1Nc2ccc(I)cc2C1=Cc1cc(Br)c(O)c(Br)c1" , the value recorded as its inhibition is -1.21

Given item "Fc1ccc(-c2ncn(C3CCNCC3)c2-c2ccnc(Oc3ccc(F)c(F)c3)n2)cc1" , the value recorded as its inhibition is -6.31

Given item "CN1CCN(CCCNc2nc3ccc(Oc4ccc(NC(=O)Nc5cc(C(F)(F)F)ccc5F)cc4)cc3[nH]2)CC1" , the value recorded as its inhibition is -6.94

Given item "O=C1NC(=O)C(c2cccc(Cl)c2)=C1Nc1ccc(Cl)c(C(=O)O)c1" , the value recorded as its inhibition is 2.03

---

- Target: Proto-oncogene tyrosine-protein kinase receptor Ret (Homo sapiens) (UniProt P07949);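 also: each listed value is an averaged inhibition figure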
- Sequence (P07949 whole entry): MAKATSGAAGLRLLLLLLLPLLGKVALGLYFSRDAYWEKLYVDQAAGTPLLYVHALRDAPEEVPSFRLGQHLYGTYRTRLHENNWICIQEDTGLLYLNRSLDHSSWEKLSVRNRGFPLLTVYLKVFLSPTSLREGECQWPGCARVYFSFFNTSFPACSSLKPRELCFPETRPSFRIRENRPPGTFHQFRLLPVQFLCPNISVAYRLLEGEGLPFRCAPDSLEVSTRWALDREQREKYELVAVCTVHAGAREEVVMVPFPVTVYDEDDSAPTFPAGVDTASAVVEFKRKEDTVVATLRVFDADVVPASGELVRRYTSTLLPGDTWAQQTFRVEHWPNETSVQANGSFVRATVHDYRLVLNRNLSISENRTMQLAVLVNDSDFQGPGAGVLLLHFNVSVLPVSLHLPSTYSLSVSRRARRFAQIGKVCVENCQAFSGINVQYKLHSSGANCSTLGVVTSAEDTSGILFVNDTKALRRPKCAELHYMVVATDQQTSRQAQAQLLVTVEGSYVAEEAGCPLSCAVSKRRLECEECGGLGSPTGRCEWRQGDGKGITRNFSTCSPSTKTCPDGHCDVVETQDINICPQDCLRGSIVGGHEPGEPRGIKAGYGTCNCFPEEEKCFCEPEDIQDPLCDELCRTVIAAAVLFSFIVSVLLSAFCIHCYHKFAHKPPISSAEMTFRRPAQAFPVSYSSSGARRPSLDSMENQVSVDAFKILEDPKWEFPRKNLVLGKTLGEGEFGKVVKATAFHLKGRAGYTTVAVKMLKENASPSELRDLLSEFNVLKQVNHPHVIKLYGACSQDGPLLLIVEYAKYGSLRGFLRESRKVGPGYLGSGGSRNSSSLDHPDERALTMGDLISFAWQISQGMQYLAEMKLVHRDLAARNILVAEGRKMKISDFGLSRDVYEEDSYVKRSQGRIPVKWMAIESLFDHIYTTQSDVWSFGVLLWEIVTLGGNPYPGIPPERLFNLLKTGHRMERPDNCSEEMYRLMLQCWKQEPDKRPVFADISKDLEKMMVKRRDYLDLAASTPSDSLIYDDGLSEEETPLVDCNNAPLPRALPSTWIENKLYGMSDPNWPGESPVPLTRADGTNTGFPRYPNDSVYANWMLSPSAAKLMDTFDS
- Particulars: at 1 µM
Assign classes using reported inhibition values and the ranges I (below 7%), II (7% to below 30%), III (30% or more), please.

Previously resolved entries follow.
• COC(=O)Nc1nc2ccc(Sc3ccc(NC(=O)Nc4cc(C(F)(F)F)ccc4F)cc3)cc2[nH]1 = III
• Nc1nccc(-c2c(-c3ccc(F)cc3)ncn2C2CCC(O)CC2)n1 (stereo not given) = II
• NC(=O)c1cc(-c2ccncc2)cc(-c2ccccc2)c1N = II
• NC(=O)Cc1ccccc1Oc1nccc(-c2c(-c3ccc(F)cc3)ncn2C2CCNCC2)n1 = I
• CS(=O)(=O)CCNCc1cc(-c2cc3c(Nc4ccc(OCc5cccc(F)c5)c(Cl)c4)ncnc3s2)cs1 = II

Determine which band this compound sits in: "CCc1ccc(Oc2nccc(-c3c(-c4ccc(F)cc4)ncn3C3CCNCC3)n2)cc1"
II

Determine which band this compound sits in: "Cc1ccc(C(=O)NC2CCC2)cc1-c1ccc(C(=O)NCC2CC2)cc1"
II

Determine which band this compound sits in: "COc1cc(Nc2ncc3c(C)nc(-c4cccc(C(F)(F)F)c4)n3n2)cc(OC)c1OC"
III

Determine which band this compound sits in: "COc1ccc2cc(-c3c(-c4ccncc4)nc(-c4ccc(S(C)(=O)=O)cc4C)n3C)ccc2c1"
II

Determine which band this compound sits in: "COc1cc2ncn(-c3cc(OCCc4ccccc4)c(C(N)=O)s3)c2cc1OC"
II

Determine which band this compound sits in: "O=C(Nc1n[nH]c2nc(-c3ccc(O)cc3)c(Br)cc12)C1CC1"
II

Determine which band this compound sits in: "COc1cc(N2CCN(C(C)C)CC2)ccc1Nc1nc(Nc2ccc(F)cc2C(=O)NC[C@@H](O)CO)c2cc[nH]c2n1"
II

Determine which band this compound sits in: "CCS(=O)(=O)c1ccc(OC)c(Nc2ncc(-c3cccc(-c4ccccc4F)c3)o2)c1"
III

Determine which band this compound sits in: "CN(c1ccc(NC(=O)Nc2c(Cl)cccc2Cl)cc1)c1ccnc(Nc2cccc(CS(C)(=O)=O)c2)n1"
III

Determine which band this compound sits in: "COc1ccc(-c2ccc3c(NC(=O)C4CC4)n[nH]c3n2)cc1"
I

Determine which band this compound sits in: "Fc1ccc(-c2ncn(CCCN3CCOCC3)c2-c2ccncc2)cc1"
I

Determine which band this compound sits in: "CN1CCN(CCCNc2nc3ccc(Oc4ccc(NC(=O)Nc5cc(C(F)(F)F)ccc5F)cc4)cc3[nH]2)CC1"
III

Determine which band this compound sits in: "c1ccc(Oc2ccc(Nc3ncc(-c4ccccc4)o3)cc2)cc1"
I

Determine which band this compound sits in: "O=C1Nc2ccccc2/C1=C/Nc1ccc(-n2cncn2)cc1"
III

---

- Target: Tyrosine-protein kinase Lyn (Homo sapiens) (UniProt P07948);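 also: kinase tested as its LYN B splice variant, values given as mean percent inhibition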
- Sequence (P07948 2-512 limits assumed): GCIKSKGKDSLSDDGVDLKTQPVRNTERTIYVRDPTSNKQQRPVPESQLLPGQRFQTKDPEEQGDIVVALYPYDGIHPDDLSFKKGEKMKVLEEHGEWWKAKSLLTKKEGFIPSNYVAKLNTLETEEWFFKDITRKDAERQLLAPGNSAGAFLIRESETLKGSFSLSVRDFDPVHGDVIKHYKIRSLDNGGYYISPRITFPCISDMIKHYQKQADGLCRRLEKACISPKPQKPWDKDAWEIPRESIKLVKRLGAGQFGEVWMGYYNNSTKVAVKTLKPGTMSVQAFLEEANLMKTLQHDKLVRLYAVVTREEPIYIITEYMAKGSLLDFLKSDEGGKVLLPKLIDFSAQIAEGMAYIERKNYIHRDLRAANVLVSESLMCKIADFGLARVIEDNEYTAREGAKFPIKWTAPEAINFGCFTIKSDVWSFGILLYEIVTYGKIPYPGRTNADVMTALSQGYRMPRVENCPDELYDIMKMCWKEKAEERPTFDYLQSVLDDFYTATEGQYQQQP
- Particulars: at 1 µM
- Description: GSK_PKIS: LYN B (splice variant) mean inhibition at 1 uM [Nanosyn]
Catalogue of compounds with associated inhibition

Worked examples, 3 compounds total:
- Fc1ccc(-c2nc3n(c2-c2ccncc2)CCS3)cc1: 4.29%
- C[C@@H](Oc1cc(-n2cnc3ccc(OCC4CCN(C)CC4)cc32)sc1C(N)=O)c1ccccc1Cl: 13.8%
- COc1cc(Nc2ncc(-c3ccccc3)o2)cc(OC)c1OC: 46.5%

Tested on Tyrosine-protein kinase Lyn (Homo sapiens) (UniProt P07948), the item "CCS(=O)(=O)c1ccc(OC)c(Nc2ncc(-c3ccccc3Cl)o2)c1" showed inhibition equal to 14.8%

Tested on Tyrosine-protein kinase Lyn (Homo sapiens) (UniProt P07948), the item "CN1CCN(CCCNc2nc3ccc(Oc4ccc(NC(=O)Nc5cc(C(F)(F)F)ccc5F)cc4)cc3[nH]2)CC1" showed inhibition equal to 9.37%

Tested on Tyrosine-protein kinase Lyn (Homo sapiens) (UniProt P07948), the item "CN(c1ccc(NC(=O)Nc2c(Cl)cccc2Cl)cc1)c1ccnc(Nc2cccc(CS(C)(=O)=O)c2)n1" showed inhibition equal to 60.9%

Tested on Tyrosine-protein kinase Lyn (Homo sapiens) (UniProt P07948), the item Nc1nccc(-c2c(-c3ccc(F)cc3)ncn2C2CCC(O)CC2)n1 (stereo not drawn) showed inhibition equal to 18%

Tested on Tyrosine-protein kinase Lyn (Homo sapiens) (UniProt P07948), the item "Cc1ccc(NC(=O)c2ccoc2)cc1-c1ccc(C(=O)NCC2CC2)cc1" showed inhibition equal to 4.12%

Tested on Tyrosine-protein kinase Lyn (Homo sapiens) (UniProt P07948), the item "NC(=O)c1ccc(Oc2nccc(-c3c(-c4ccc(F)cc4)ncn3C3CCNCC3)n2)cc1" showed inhibition equal to 4.92%

---

- Target: Mitogen-activated protein kinase kinase kinase kinase 2 (Homo sapiens);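 also: reported value is a mean of MAP4K2 inhibition at 1 µM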
- Sequence (whole entry): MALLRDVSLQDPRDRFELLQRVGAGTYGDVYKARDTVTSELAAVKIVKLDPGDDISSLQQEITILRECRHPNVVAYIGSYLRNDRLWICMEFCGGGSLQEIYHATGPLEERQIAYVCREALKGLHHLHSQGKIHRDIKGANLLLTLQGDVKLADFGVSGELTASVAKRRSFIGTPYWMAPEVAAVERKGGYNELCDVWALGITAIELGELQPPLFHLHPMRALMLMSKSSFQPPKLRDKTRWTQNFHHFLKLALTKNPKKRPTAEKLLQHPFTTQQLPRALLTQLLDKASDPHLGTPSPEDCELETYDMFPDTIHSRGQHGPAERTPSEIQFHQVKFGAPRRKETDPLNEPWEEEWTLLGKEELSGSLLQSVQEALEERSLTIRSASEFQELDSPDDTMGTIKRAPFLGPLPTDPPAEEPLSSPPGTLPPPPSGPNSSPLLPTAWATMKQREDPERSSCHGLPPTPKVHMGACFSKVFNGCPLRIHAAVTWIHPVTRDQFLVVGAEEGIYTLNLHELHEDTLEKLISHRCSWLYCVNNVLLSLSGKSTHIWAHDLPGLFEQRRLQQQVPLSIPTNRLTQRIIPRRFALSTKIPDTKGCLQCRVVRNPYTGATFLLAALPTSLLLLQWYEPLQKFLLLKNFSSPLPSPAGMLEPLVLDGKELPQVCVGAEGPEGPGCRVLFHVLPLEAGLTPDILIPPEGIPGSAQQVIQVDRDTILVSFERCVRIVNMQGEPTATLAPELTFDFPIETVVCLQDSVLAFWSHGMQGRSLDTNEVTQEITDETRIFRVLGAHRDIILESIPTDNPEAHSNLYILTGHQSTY
- Particulars: at 1 µM
Quick rule: inhibition of at least 10% means Yes, below that means No.

- NS(=O)(=O)c1ccc(N/N=C2\C(=O)Nc3ccc(C(=O)NCCCn4ccnc4)cc32)cc1: No

Confirm if inhibition reported for the compound "CCC(=O)Nc1ccc(C)c(-c2ccc(C(=O)NCC3CC3)cc2)c1" is 10% or above.
No

Confirm if inhibition reported for the compound COc1ccc2cc(-c3c(-c4ccncc4)nc(-c4ccc([S+](C)[O-])cc4C)n3C)ccc2c1 (configuration not stated) is 10% or above.
No

Confirm if inhibition reported for the compound "O=C(Nc1n[nH]c2nc(-c3ccc(O)cc3)c(Br)cc12)C1CC1" is 10% or above.
Yes

Confirm if inhibition reported for the compound "Fc1ccc(-c2ncn(CCCN3CCOCC3)c2-c2ccncc2)cc1" is 10% or above.
No

Confirm if inhibition reported for the compound "COc1cc2ncn(-c3cc(OCCc4ccccc4)c(C(N)=O)s3)c2cc1OC" is 10% or above.
No

Confirm if inhibition reported for the compound "CN(C)c1ccc2c(c1)/C(=C/Nc1ccc(S(N)(=O)=O)cc1)C(=O)N2" is 10% or above.
Yes

Confirm if inhibition reported for the compound "COc1cc(Nc2ncc3c(C)nc(-c4cccc(C(F)(F)F)c4)n3n2)cc(OC)c1OC" is 10% or above.
No

Confirm if inhibition reported for the compound "C[C@@H](Oc1cc(-n2cnc3ccc(OC4CCN(C)CC4)cc32)sc1C(N)=O)c1ccccc1Cl" is 10% or above.
Yes

Confirm if inhibition reported for the compound "CCc1ccc(Oc2nccc(-c3c(-c4ccc(F)cc4)ncn3C3CCNCC3)n2)cc1" is 10% or above.
Yes

Confirm if inhibition reported for the compound "COc1ccc2cc(-c3c(-c4ccncc4)nc(-c4ccc(S(C)(=O)=O)cc4C)n3C)ccc2c1" is 10% or above.
No

Data provenance is ChEMBL document CHEMBL1961873.
